Target: T1, biotinylated Avi-tagged ankle region of clathrin (aa 358–574) (human, UniProt Q00610 358-574, biotin)
T1 chain: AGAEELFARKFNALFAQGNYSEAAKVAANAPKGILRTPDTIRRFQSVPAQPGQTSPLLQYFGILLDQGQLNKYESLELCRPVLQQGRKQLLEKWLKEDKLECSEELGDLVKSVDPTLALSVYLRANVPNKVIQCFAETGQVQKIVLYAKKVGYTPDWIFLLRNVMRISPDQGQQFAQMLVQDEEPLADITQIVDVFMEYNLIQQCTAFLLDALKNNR
Assay: SPR
Non-standard residues stand in square brackets, D forms with d. No end group written: not given here. pS = N[C@@H](COP(=O)(O)O)C(=O)O; FAM = 5(6)-carboxyfluorescein
The reader will find reported Kd values listed item by item below.
Quick note: give the figure in µM, leave out the unit.

Binder	Kd (µM)
{FAM}-KESALRKLELLLEFDPLFRDS (designed binder, staple (positions not given here); not fully specified (residues 8, 12, bridges); also: (S)-2-(4-pentenyl)alanine at 557 and 561 not placed in the given letters) [Opt SP TACC3]	0.03

Please examine the following record next.
If you can, please state the reported Kd value of {FAM}-FKESALRKQ[pS]LYLKFDPLLRDS [FAM-pTACC3 CID peptide (aa 549–570), phosphorylated at S558] . 23

The reported measurements were obtained from paper PMC12204359.
